# method.description: Oral bioavailability in Wistar rat at 10 mg/kg, ip administered as single dose measured after 36 hrs by HPLC/ESI-MS analysis
# Type: ADME, organism-based
# recorded.conditions: in vivo, intraperitoneal
outcome.measure: bioavailability (%)
Give just the number in %; leave the unit off.

Prompt line: Reported bioavailability, molecule C=C1C(=O)[C@]23[C@H](O)[C@H]1CC[C@H]2[C@@]12CO[C@]3(O)[C@@H](O)[C@@H]1C(C)(C)CC[C@@H]2O [ORIDONIN] : ____
Response line: 12.6

---

# method.description: Anticancer activity against human PC3 cells measured after 48 hrs by CCK8 assay
# Format: functional, cell-based
# recorded.conditions: PC-3, 48 h
outcome.measure: EC50
Include the unit right after the number.

Prompt line: Reported EC50, compound `C=C1C(=O)[C@]23[C@H](O)[C@H]1CC[C@H]2[C@@]12CO[C@]3(O)[C@@H](O)[C@@H]1C(C)(C)CC[C@@H]2O` : ____
Response line: 25 µM

---

# method.description: Anticancer activity against human SW480 cells measured after 24 hrs by MTT assay
# Type: functional, cell-based
# recorded.conditions: SW480, 24 h
pEC50: −log10 of the molar value.
outcome.measure: pEC50

Prompt line: Reported pEC50, molecule `C=C1C(=O)[C@]23[C@H](O)[C@H]1CC[C@H]2[C@@]12CO[C@]3(O)[C@@H](O)[C@@H]1C(C)(C)CC[C@@H]2O` : ____
Response line: 4.43 to 4.68

---

# method.description: Toxicity in iv dosed Sprague-Dawley rat administered qd for 28 days
# Type: organism-based
# recorded.conditions: in vivo
outcome.measure: NOAEL at 672 h (mg/kg)
Give just the number in mg/kg; leave the unit off.

Prompt line: Reported NOAEL at 672 h, molecule `C=C1C(=O)[C@]23[C@H](OC(=O)[C@H](C)N)[C@H]1CC[C@H]2[C@@]12CO[C@@]3(O)[C@@H](O)[C@@H]1C(C)(C)CC[C@@H]2O.O=C(O)C(F)(F)F` : ____
Response line: 40

---

# method.description: Antiproliferative activity against human MDA-MB-231 cells measured after 48 hrs by MTT assay
# Type: functional, cell-based
# recorded.conditions: MDA-MB-231, 48 h
outcome.measure: EC50 (µM)
Give just the number in µM; leave the unit off.

C=C1C(=O)[C@@]23[C@@H]4OC(C)(C)O[C@@]25OC[C@]2(C6=C(CC[C@H](OCCCl)O6)CC(C)(C)[C@H]2[C@@H]5O)[C@@H]3CC[C@@H]14 : 3.3
C=C1C(=O)[C@@]23[C@@H]4OC(C)(C)O[C@@]25OC[C@]2(C6=C(CC[C@@H](OCCCC)O6)CC(C)(C)[C@H]2[C@@H]5O)[C@@H]3CC[C@@H]14 : 3.7
C=C1C(=O)[C@@]23[C@@H]4OC(C)(C)O[C@@]25OC[C@]2(C6=C(CC[C@@H](OCC)O6)CC(C)(C)[C@H]2[C@@H]5O)[C@@H]3CC[C@@H]14 : 0.54

Next:
Prompt line: Reported EC50, compound `C=C1C(=O)[C@@]23[C@@H]4OC(C)(C)O[C@@]25OC[C@]2(C6=C(CC[C@@H](OCCCl)O6)CC(C)(C)[C@H]2[C@@H]5O)[C@@H]3CC[C@@H]14` : ____
Response line: 7.2
